The entries below come with measured inhibition at 20 µg/mL values attached.
# system.name: UniProtKB P22303
# assay.protocol: biochemical
# assay.conditions: at 20 µg/mL; mean ± SE, n = 3
The number alone won't do; follow it with the unit.

O=c1/c(=C\[C@H](O)[C@@H](O)[C@H](O)CO)sc2nc3sc4c(c3c(=O)n12)CCC4
4.4%

Form field: reported inhibition at 20 µg/mL of O=c1/c(=C\[C@H](O)[C@@H](O)[C@@H](O)[C@H](O)CO)sc2nc3sc4c(c3c(=O)n12)CCCC4
5.93%

Report inhibition at 20 µg/mL for O=c1/c(=C\[C@@H](O)[C@@H](O)[C@H](O)[C@H](O)CO)sc2nc3sc4c(c3c(=O)n12)CCCC4 please.
5.19%

Data request, read-out inhibition at 20 µg/mL, for O=c1/c(=C\[C@H](O)[C@@H](O)[C@H](O)[C@H](O)CO)sc2nc3sc4c(c3c(=O)n12)CCC4
5.75%

###

# system.name: proteinase enzyme
# assay.protocol: Proteinase inhibition (anti-arthritic)
# Assay type: biochemical
# assay.conditions: mean ± SE, n = 3
# Protocol: Anti-arthritic activity was evaluated using diclofenac sodium as the reference drug. The inhibition percentage and IC50 were determined for protein denaturation and the proteinase enzyme.
outcome.measure: Proteinase IC50 (µg/mL)
Numbers only; they are read as µg/mL.

Some compounds with recorded Proteinase IC50:
O=c1/c(=C\[C@H](O)[C@@H](O)[C@H](O)CO)sc2nc3sc4c(c3c(=O)n12)CCCC4 [8d]
65.40
O=c1/c(=C\[C@H](O)[C@@H](O)[C@H](O)[C@H](O)CO)sc2nc3sc4c(c3c(=O)n12)CCCC4 [8a]
101.84
O=c1/c(=C\[C@@H](O)[C@@H](O)[C@H](O)[C@H](O)CO)sc2nc3sc4c(c3c(=O)n12)CCCC4 [8b]
65.93
O=c1/c(=C\[C@H](O)[C@@H](O)[C@H](O)CO)sc2nc3sc4c(c3c(=O)n12)CCC4 [7d]
48.10

Proteinase IC50 for O=c1/c(=C\[C@@H](O)[C@H](O)[C@H](O)CO)sc2nc3sc4c(c3c(=O)n12)CCC4 [7e] ?
54.22

Given O=c1/c(=C\[C@H](O)[C@@H](O)[C@@H](O)[C@H](O)CO)sc2nc3sc4c(c3c(=O)n12)CCCC4 [8c] , state its recorded Proteinase IC50.
75.16

Entry under review: O=c1/c(=C\[C@H](O)[C@@H](O)[C@@H](O)[C@H](O)CO)sc2nc3sc4c(c3c(=O)n12)CCC4 [7c] . Reported Proteinase IC50?
46.88

Which Proteinase IC50 is listed for O=c1/c(=C\[C@H](O)[C@@H](O)[C@H](O)[C@H](O)CO)sc2nc3sc4c(c3c(=O)n12)CCC4 [7a] ?
62.33

###

Measured ABTS (%), listed per entry.
# assay.protocol: ABTS radical scavenging
# Assay type: biochemical
# assay.conditions: inhibition % at 20 µg/mL; mean ± SE, n = 3
# Protocol: The antioxidant activity was assessed using the iron reducing power (IRP) and the total antioxidant capacity (TAC). Ascorbic acid served as a standard to calculate the inhibition percentages (%) and the median inhibitory concentration (IC50) of each tested compound against the following radicals: nitric oxide (NO), hydroxyl (OH), hydrogen peroxide (H2O2), ABTS [79], and DPPH [80].
Provide the reading as a plain figure in %.

O=c1/c(=C\[C@H](O)[C@@H](O)[C@@H](O)[C@H](O)CO)sc2nc3sc4c(c3c(=O)n12)CCCC4
15.65
O=c1/c(=C\[C@H](O)[C@@H](O)[C@H](O)CO)sc2nc3sc4c(c3c(=O)n12)CCC4
19.84
O=c1/c(=C\[C@H](O)[C@@H](O)[C@H](O)CO)sc2nc3sc4c(c3c(=O)n12)CCCC4
16.77

We now examine a further compound.
Dear colleague, I am looking for the recorded ABTS (%) of the following compound: O=c1/c(=C\[C@H](O)[C@@H](O)[C@H](O)[C@H](O)CO)sc2nc3sc4c(c3c(=O)n12)CCCC4
13.70

###

Proteinase Inhibition (%) values for the compounds below.
# System: proteinase enzyme
# assay.protocol: Proteinase inhibition (anti-arthritic)
# Format: biochemical
# Parameters: concentration or dose not given beside the values
# assay.conditions: mean ± SE, n = 3
Your answer should be a plain number; it is taken to be in %.

Here's what some known entries look like.
O=c1/c(=C\[C@@H](O)[C@H](O)[C@H](O)CO)sc2nc3sc4c(c3c(=O)n12)CCC4
8.56
O=c1/c(=C\[C@H](O)[C@@H](O)[C@H](O)CO)sc2nc3sc4c(c3c(=O)n12)CCCC4
7.11
O=c1/c(=C\[C@H](O)[C@@H](O)[C@H](O)[C@H](O)CO)sc2nc3sc4c(c3c(=O)n12)CCCC4
4.57
O=c1/c(=C\[C@H](O)[C@@H](O)[C@H](O)[C@H](O)CO)sc2nc3sc4c(c3c(=O)n12)CCC4
7.45
O=c1/c(=C\[C@H](O)[C@@H](O)[C@@H](O)[C@H](O)CO)sc2nc3sc4c(c3c(=O)n12)CCC4
9.91
O=c1/c(=C\[C@@H](O)[C@@H](O)[C@H](O)[C@H](O)CO)sc2nc3sc4c(c3c(=O)n12)CCC4
10.89

Query compound follows.
Given the compound O=c1/c(=C\[C@@H](O)[C@@H](O)[C@H](O)[C@H](O)CO)sc2nc3sc4c(c3c(=O)n12)CCCC4 , what is its reported Proteinase Inhibition (%)?
7.63

###

# system.name: acetylcholinesterase (AChE) (Homo sapiens)
# Sequence (P22303 32-614, species assumed): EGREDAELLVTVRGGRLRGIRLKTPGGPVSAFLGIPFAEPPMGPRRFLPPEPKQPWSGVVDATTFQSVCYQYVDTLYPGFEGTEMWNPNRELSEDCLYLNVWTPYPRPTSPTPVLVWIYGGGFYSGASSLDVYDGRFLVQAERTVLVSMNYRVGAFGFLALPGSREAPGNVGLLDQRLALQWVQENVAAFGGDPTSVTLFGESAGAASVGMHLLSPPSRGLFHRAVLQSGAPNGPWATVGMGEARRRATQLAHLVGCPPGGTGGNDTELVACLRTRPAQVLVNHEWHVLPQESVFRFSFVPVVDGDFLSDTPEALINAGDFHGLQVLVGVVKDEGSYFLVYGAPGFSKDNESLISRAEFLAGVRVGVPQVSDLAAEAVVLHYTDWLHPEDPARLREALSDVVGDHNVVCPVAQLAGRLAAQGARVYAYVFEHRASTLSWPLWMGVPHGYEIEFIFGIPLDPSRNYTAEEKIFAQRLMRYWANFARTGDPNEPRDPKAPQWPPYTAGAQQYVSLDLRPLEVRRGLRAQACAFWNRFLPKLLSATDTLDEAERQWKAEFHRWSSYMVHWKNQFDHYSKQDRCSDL
# assay.protocol: biochemical
# assay.conditions: mean ± SE, n = 3; read-out: AChE IC50 (µg/mL) (converted)
Each item that follows carries a reported IC50.
Give a bare numeral; the unit µM is implied.

Hello, I am looking for reported IC50 with acetylcholinesterase (AChE) (Homo sapiens) for O=c1/c(=C\[C@H](O)[C@@H](O)[C@H](O)[C@H](O)CO)sc2nc3sc4c(c3c(=O)n12)CCCC4 . Could you help?
112

Notebook: pull reported IC50 for acetylcholinesterase (AChE) (Homo sapiens), entry O=c1/c(=C\[C@@H](O)[C@@H](O)[C@H](O)[C@H](O)CO)sc2nc3sc4c(c3c(=O)n12)CCCC4
126

###

Measured Proteinase IC50 by item
# system.name: proteinase enzyme
# assay.protocol: Proteinase inhibition (anti-arthritic)
# Assay type: biochemical
# assay.conditions: mean ± SE, n = 3
Please state the figure in µg/mL; there is no need to write the unit.

Solved entries:
O=C(O)Cc1ccccc1Nc1c(Cl)cccc1Cl [Diclofenac sodium, reference compound]
8.20
O=c1/c(=C\[C@@H](O)[C@H](O)[C@H](O)CO)sc2nc3sc4c(c3c(=O)n12)CCCC4
9.08

Moving on to another compound below.
Requested field: Proteinase IC50. Item: O=c1/c(=C\[C@@H](O)[C@@H](O)[C@H](O)[C@H](O)CO)sc2nc3sc4c(c3c(=O)n12)CCC4
42.61

###

# assay.protocol: DPPH radical scavenging
# Type: biochemical
# assay.conditions: mean ± SE, n = 3
Lab note: compare DPPH radical scavenging IC50 against 30 µg/mL. Equal or greater, write 1 (yes). Smaller, write 0 (no).

Please review the following examples before continuing.
O=c1/c(=C\[C@H](O)[C@@H](O)[C@@H](O)[C@H](O)CO)sc2nc3sc4c(c3c(=O)n12)CCCC4
1 (yes)
O=c1/c(=C\[C@@H](O)[C@@H](O)[C@H](O)[C@H](O)CO)sc2nc3sc4c(c3c(=O)n12)CCCC4
0 (no)
O=c1/c(=C\[C@@H](O)[C@H](O)[C@H](O)CO)sc2nc3sc4c(c3c(=O)n12)CCCC4
0 (no)
O=c1/c(=C\[C@H](O)[C@@H](O)[C@H](O)CO)sc2nc3sc4c(c3c(=O)n12)CCCC4
0 (no)
O=c1/c(=C\[C@H](O)[C@@H](O)[C@@H](O)[C@H](O)CO)sc2nc3sc4c(c3c(=O)n12)CCC4
0 (no)

DPPH radical scavenging IC50 >= 30 µg/mL for O=c1/c(=C\[C@@H](O)[C@@H](O)[C@H](O)[C@H](O)CO)sc2nc3sc4c(c3c(=O)n12)CCC4 ?
0 (no)

###

# assay.protocol: Iron-reducing power (IRP)
# Assay type: biochemical
# assay.conditions: mean ± SE, n = 3
Please use 1 whenever IRP is not below 10 µg/mL, and -1 whenever it is.

Record excerpt, results attached:
O=c1/c(=C\[C@H](O)[C@@H](O)[C@@H](O)[C@H](O)CO)sc2nc3sc4c(c3c(=O)n12)CCC4 [7c]
1
O=c1/c(=C\[C@@H](O)[C@@H](O)[C@H](O)[C@H](O)CO)sc2nc3sc4c(c3c(=O)n12)CCC4 [7b]
1
O=c1/c(=C\[C@H](O)[C@@H](O)[C@H](O)[C@H](O)CO)sc2nc3sc4c(c3c(=O)n12)CCCC4 [8a]
-1
O=C1O[C@H]([C@@H](O)CO)C(O)=C1O [ascorbic acid, reference compound]
1
O=c1/c(=C\[C@H](O)[C@@H](O)[C@H](O)CO)sc2nc3sc4c(c3c(=O)n12)CCC4 [7d]
1
O=c1/c(=C\[C@H](O)[C@@H](O)[C@@H](O)[C@H](O)CO)sc2nc3sc4c(c3c(=O)n12)CCCC4 [8c]
-1

Kindly review the next compound as well.
Is IRP for O=c1/c(=C\[C@@H](O)[C@H](O)[C@H](O)CO)sc2nc3sc4c(c3c(=O)n12)CCC4 [7e] at or above 10 µg/mL?
1
